- target: Voltage-gated inwardly rectifying potassium channel KCNH2 (Homo sapiens)
- experiment: hERG protection against dofetilide inhibition, confirmation, cell-based, thallium flux, duplicate retest, dofetilide IC70 (AID 1835)
- particulars: hERG cell line, FluxOR thallium flux, dofetilide-blocked; at 10 µM; stronger effect = higher value
About 750 (31%) of roughly 2,400 compounds were called active. The list shows a part of the results.
test readout: activity increase over dofetilide control, less the hit threshold (%)

| smiles input | val |
| --- | --- |
| O=C(COC(=O)c1cc(Br)ccc1O)Nc1cccnc1Cl | -14 |
| NNC(=O)CNc1ccccc1Cl | -9 |
| C/C(=N\NC(=O)c1cc2ccccc2cc1O)c1ccc(C)o1 | 50 |
| Cc1ccc(NC(=O)CSc2nnc(-c3cccnc3)n2-c2ccc(C)cc2)cc1 | -20 |
| O=Cc1cc(-c2ccccc2)[nH]c1-c1ccccc1 | -19 |
| CCN1CCN(CC(=O)c2ccc(OC)cc2)CC1 | -17 |
| Cc1ccc(-c2csc(=S)[nH]2)cc1 | 95 |
| S=c1[nH]c(-c2ccc(Cl)cc2)cs1 | 136 |
| S=c1[nH]nc(Nc2ccc(Cl)cc2)s1 | -3 |
| O=C(OCc1ccc([N+](=O)[O-])cc1)c1cc2ccccc2oc1=O | -25 |
| C/C(=N/NC(=O)c1cc2ccccc2cc1O)c1ccco1 | 40 |
| C/C(=N\NC(=O)c1cc2ccccc2cc1O)c1ccccn1 | -10 |

###

- target: Voltage-gated inwardly rectifying potassium channel KCNH2 (Homo sapiens) (UniProt Q12809)
- Sequence (Q12809 whole entry, looked up): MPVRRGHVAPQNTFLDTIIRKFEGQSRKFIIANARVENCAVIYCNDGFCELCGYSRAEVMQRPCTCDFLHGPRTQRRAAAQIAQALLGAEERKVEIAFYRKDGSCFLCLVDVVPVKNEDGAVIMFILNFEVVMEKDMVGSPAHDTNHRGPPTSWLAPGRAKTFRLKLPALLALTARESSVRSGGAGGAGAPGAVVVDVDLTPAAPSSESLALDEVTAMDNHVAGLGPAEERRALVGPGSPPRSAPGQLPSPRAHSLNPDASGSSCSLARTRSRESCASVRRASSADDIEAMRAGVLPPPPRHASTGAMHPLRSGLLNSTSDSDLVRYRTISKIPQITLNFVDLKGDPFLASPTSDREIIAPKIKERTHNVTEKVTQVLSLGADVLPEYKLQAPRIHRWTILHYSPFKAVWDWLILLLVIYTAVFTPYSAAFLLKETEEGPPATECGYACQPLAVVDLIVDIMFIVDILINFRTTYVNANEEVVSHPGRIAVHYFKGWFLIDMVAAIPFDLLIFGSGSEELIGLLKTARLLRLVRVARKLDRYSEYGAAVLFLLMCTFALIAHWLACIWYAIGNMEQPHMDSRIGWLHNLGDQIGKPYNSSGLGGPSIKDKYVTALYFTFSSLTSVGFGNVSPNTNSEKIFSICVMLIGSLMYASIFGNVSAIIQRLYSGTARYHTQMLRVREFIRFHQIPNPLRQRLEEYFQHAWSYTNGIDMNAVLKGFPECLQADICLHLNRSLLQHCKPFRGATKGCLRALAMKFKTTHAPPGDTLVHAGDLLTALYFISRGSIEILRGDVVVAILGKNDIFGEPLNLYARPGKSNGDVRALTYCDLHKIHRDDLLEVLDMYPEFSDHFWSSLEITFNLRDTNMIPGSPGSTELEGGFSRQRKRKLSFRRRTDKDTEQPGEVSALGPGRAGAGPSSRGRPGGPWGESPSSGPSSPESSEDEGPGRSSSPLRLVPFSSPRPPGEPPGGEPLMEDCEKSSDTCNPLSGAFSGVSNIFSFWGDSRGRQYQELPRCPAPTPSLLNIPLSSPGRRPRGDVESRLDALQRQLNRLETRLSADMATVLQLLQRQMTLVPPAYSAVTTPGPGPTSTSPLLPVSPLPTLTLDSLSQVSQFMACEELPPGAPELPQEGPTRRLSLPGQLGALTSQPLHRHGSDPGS
- experiment: hERG protection against dofetilide inhibition, confirmation, cell-based, thallium flux, duplicate retest, dofetilide IC70 (AID 1835)
- particulars: hERG cell line, FluxOR thallium flux, dofetilide-blocked; at 10 µM
Among all 2,400 compounds or so, about 750 (31%) were called active.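 Rule for the calls: active = median signal gain over dofetilide-blocked control wells reaching their mean plus 3 SD, so readout 1 at least 0; inactive = the rest.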 Some of the results follow.
Classes used: true (1) (active), false (0) (inactive)

| compound | target | group |
| --- | --- | --- |
| COc1ccccc1C(=O)NNC(=O)C(=O)NC(C)(C)C | Voltage-gated inwardly rectifying potassium channel KCNH2 (Homo sapiens) (UniProt Q12809) | true (1) |
| CCn1cc(CCC(=O)NCc2cccc(OC)c2OC)c2ccccc21 | Voltage-gated inwardly rectifying potassium channel KCNH2 (Homo sapiens) (UniProt Q12809) | false (0) |
| Cc1cc(C=O)c2c(c1)C=CC1(Oc3ccccc3C(=O)N1C)O2 (stereo unspecified) | Voltage-gated inwardly rectifying potassium channel KCNH2 (Homo sapiens) (UniProt Q12809) | false (0) |
| CC(=O)Nc1ccccc1C(=O)C(=O)Nc1ccccc1 | Voltage-gated inwardly rectifying potassium channel KCNH2 (Homo sapiens) (UniProt Q12809) | false (0) |
| COc1ccccc1C(=O)NNC(=O)C(=O)NC1CCCCC1 | Voltage-gated inwardly rectifying potassium channel KCNH2 (Homo sapiens) (UniProt Q12809) | true (1) |
| CC(=O)c1cc(N2CCC(C(=O)O)CC2)ccc1[N+](=O)[O-] | Voltage-gated inwardly rectifying potassium channel KCNH2 (Homo sapiens) (UniProt Q12809) | false (0) |
| COc1ccccc1NC(=O)C1CCCN1C(=O)NCc1ccccc1 (stereo unspecified) | Voltage-gated inwardly rectifying potassium channel KCNH2 (Homo sapiens) (UniProt Q12809) | false (0) |
| COc1ccccc1C(=O)Nc1ccnn1C1CCN(C(=O)c2ccoc2C)CC1 | Voltage-gated inwardly rectifying potassium channel KCNH2 (Homo sapiens) (UniProt Q12809) | false (0) |
| Cc1ccc(NC(=O)C(=O)NNC(=O)c2ccccc2C)cc1Cl | Voltage-gated inwardly rectifying potassium channel KCNH2 (Homo sapiens) (UniProt Q12809) | true (1) |
| Cc1ccc(-c2csc3nc[nH]c(=S)c23)cc1C | Voltage-gated inwardly rectifying potassium channel KCNH2 (Homo sapiens) (UniProt Q12809) | true (1) |
| COc1ccc(S(=O)(=O)Nc2cccc(-n3cnnn3)c2)cc1 | Voltage-gated inwardly rectifying potassium channel KCNH2 (Homo sapiens) (UniProt Q12809) | false (0) |
